test system: MV-4-11 cells (human acute myelogenous leukemia cell line carrying MLL-AF4 mutation); test: Cell proliferation assay, MV-4-11 (CellTiter-Glo); format: cell-based; conditions: Homo sapiens, MV4-11, 72 h, MV-4-11 cells, 3 days treatment, CellTiter-Glo; read-out: GI50
recorded.endpoint: GI50 (nM)

>>> observed("CCN(C(=O)c1cc(F)ccc1Oc1nncnc1N1CC2(CCN(Cc3ccc(NC(=O)CC#N)cc3C)CC2)C1)C(C)C")
50

1 = CCN(C(=O)c1cc(F)ccc1Oc1nncnc1N1CC2(CCN(Cc3c(C)cc(C)[nH]c3=O)CC2)C1)C(C)C
2 = CCN(C(=O)c1cc(F)ccc1Oc1nncnc1N1CC2(CCN(CC3CCN(C(=O)C4CC(F)(F)C4)CC3)CC2)C1)C(C)C
3 = C=CC(=O)N1CCC(c2ccc(CN3CCC4(CC3)CN(c3ncnnc3Oc3ccc(F)cc3C(=O)N(CC)C(C)C)C4)cc2)CC1
Arrange items by their GI50 values in increasing order. Reply with the labels, ordered as the question asks.
2, 1, 3
(2: 13 nM, 1: 230 nM, 3: 430 nM)

A = CCN(C(=O)c1cc(F)ccc1Oc1nncnc1N1CC2(CCN(CC3CCN(C4COC4)CC3)CC2)C1)C(C)C
B = CCN(C(=O)c1cc(F)ccc1Oc1nncnc1N1CC2(CCN(CC3CCN(c4ccncc4C(N)=O)CC3)CC2)C1)C(C)C
Form: Entry with minimum GI50 (choose one): A / B Reply briefly: the label of your chosen item.
B

---

test system: MV-4-11 cells (human acute myelogenous leukemia cell line carrying MLL-AF4 mutation); test: Cell proliferation assay, MV-4-11 (CellTiter-Glo); type: cell-based; conditions: Homo sapiens, MV4-11, 72 h, MV-4-11 cells, 3 days treatment, CellTiter-Glo; read-out: GI50
recorded.endpoint: GI50 (nM)

Previously resolved entries follow.
>>> observed("CCN(C(=O)c1cc(F)ccc1Oc1nncnc1N1CC2(CCN(CC3CCN(c4cnc(C#N)cn4)CC3)CC2)C1)C(C)C [Compound 49]")
24
>>> observed("CCN(C(=O)c1cc(F)ccc1Oc1nncnc1N1CC2(CCN(Cc3ccc4c(cc(C#N)n4CC(O)C(N)=O)c3C)CC2)C1)C(C)C (stereo not shown) [Compound 148]")
221
>>> observed("CCN(C(=O)c1cc(F)ccc1Oc1nncnc1N1CC2(CCN(CC3CCN(C(=O)NCCOC)CC3)CC2)C1)C(C)C [Compound 35]")
35
>>> observed("CCN(C(=O)c1cc(F)ccc1Oc1nncnc1N1CC2(CCN(CC3CCN(C(=O)CC#N)CC3)CC2)C1)C(C)C [Compound 13]")
20
>>> observed("CCN(C(=O)c1cc(F)ccc1Oc1nncnc1N1CC2(CCN(CC3CC=C(c4ccccn4)CC3)CC2)C1)C(C)C (stereo not shown) [Compound 123]")
39

P = CCN(C(=O)c1cc(F)ccc1Oc1nncnc1N1CC2(CCN(CC3CCN(c4ccnc(C(C)(C)O)c4)CC3)CC2)C1)C(C)C [Compound 120]
Q = CCN(C(=O)c1cc(F)ccc1Oc1nncnc1N1CC2(CCN(CC3CCN(c4ccccn4)CC3)CC2)C1)C(C)C [Compound 57]
Of P versus Q , which is the one with smaller reported GI50? I would appreciate it if you answered with the label of your choice.
Q
(Q: 5 nM, P: 36 nM)

---

tested on: MV-4-11 cells (human acute myelogenous leukemia cell line carrying MLL-AF4 mutation); assay: Cell proliferation assay, MV-4-11 (CellTiter-Glo); type: cell-based; conditions: Homo sapiens, MV4-11, 72 h
recorded.endpoint: GI50 (nM)
Give the quantity in nM, number only.

>>> observed("CCN(C(=O)c1cc(F)ccc1Oc1nncnc1N1CC2(CCN(CC3CCN(C(=O)NC4CC4)CC3)CC2)C1)C(C)C [Compound 26]")
7

What does the record list as GI50 for CCN(C(=O)c1cc(F)ccc1Oc1nncnc1N1CC2(CCN(CC3CCN(C(=O)OC)CC3)CC2)C1)C(C)C [Compound 170] ?
49

Query: GI50; subject: CCN(C(=O)c1cc(F)ccc1Oc1nncnc1N1CC2(CCN(CC3CCN(C(=O)C4(C(=O)N(C)C)CC4)CC3)CC2)C1)C(C)C [Compound 19]
667

# GI50 lookup, item C=CC(=O)N1CC(C(=O)N2CCC(CN3CCC4(CC3)CN(c3ncnnc3Oc3ccc(F)cc3C(=O)N(CC)C(C)C)C4)CC2)C1 [Compound 18]
12

---

tested on: MV-4-11 cells (human acute myelogenous leukemia cell line carrying MLL-AF4 mutation); assay: Cell proliferation assay, MV-4-11 (CellTiter-Glo); assay type: cell-based; settings: Homo sapiens, MV4-11, 72 h, MV-4-11 cells, 3 days treatment, CellTiter-Glo; read-out: GI50
recorded.endpoint: GI50 (nM)

P = Cc1c(CN2CCC3(CC2)CN(c2ncnnc2Oc2ccc(F)cc2)C3)ccc2c1cc(C#N)n2CCO [Compound 155]
Q = COc1cc(N2CCC(CN3CCC4(CC3)CN(c3ncnnc3Oc3ccc(Cl)cc3)C4)CC2)nnc1OC [Compound 103]
R = C=CC(=O)Nc1cccc(N2CC3(CCC(CN4CCC5(CC4)CN(c4ncnnc4Oc4ccc(F)cc4C(=O)N(CC)C(C)C)C5)CC3)C2)c1 [Compound 181]
S = CCN(C(=O)c1cc(F)ccc1Oc1nncnc1N1CC2(CCN(CC3CCC(O)(c4ccccn4)CC3)CC2)C1)C(C)C (stereo not shown) [Compound 125]
Rank the compounds listed above in increasing order of GI50. Please list the labels in the order you were asked to rank them.
R, Q, P, S

---

system: MV-4-11 cells (human acute myelogenous leukemia cell line carrying MLL-AF4 mutation); assay: Cell proliferation assay, MV-4-11 (CellTiter-Glo); type: cell-based; conditions: Homo sapiens, MV4-11, 72 h, MV-4-11 cells, 3 days treatment, CellTiter-Glo; read-out: GI50
recorded.endpoint: GI50 (µM)

Solved entries:
>>> observed("CCN(C(=O)c1cc(F)ccc1Oc1nncnc1N1CC2(CCN(CC3CCN(c4ccn(C)n4)CC3)CC2)C1)C(C)C")
0.078
>>> observed("CCN(C(=O)c1cc(F)ccc1Oc1nncnc1N1CC2(CCN(CC3CCN(c4ncccn4)CC3)CC2)C1)C(C)C")
0.02

P = CCN(C(=O)c1cc(F)ccc1Oc1nncnc1N1CC(C2(NCc3ccc4[nH]c(C#N)cc4c3C)CC2)C1)C(C)C
Q = CCN(C(=O)c1cc(F)ccc1Oc1nncnc1N1CC(C2(N(C)Cc3ccc4[nH]c(C#N)cc4c3C)CC2)C1)C(C)C
R = CCN(C(=O)c1cc(F)ccc1Oc1nncnc1N1CC2(CCN(CC3CCN(c4nnc(OC)cc4OC)CC3)CC2)C1)C(C)C
S = CCN(C(=O)c1cc(F)ccc1Oc1nncnc1N1CC2(CCN(CC3CCN(c4cc(C#N)cnn4)CC3)CC2)C1)C(C)C
T = CCN(C(=O)c1cc(F)ccc1Oc1nncnc1N1CC2(CCN(Cc3ccc4c(cc(C#N)n4C4COC4)c3C)CC2)C1)C(C)C
Hey, can you sort those compounds up there by GI50, smallest first? Return value: ordered labels per request.
T, S, Q, R, P

---

Biological target: Recombinant human Menin protein (2-610) / MLL polypeptide binding (Homo sapiens (Human), UniProt O00255)
Sequence (O00255 2-610): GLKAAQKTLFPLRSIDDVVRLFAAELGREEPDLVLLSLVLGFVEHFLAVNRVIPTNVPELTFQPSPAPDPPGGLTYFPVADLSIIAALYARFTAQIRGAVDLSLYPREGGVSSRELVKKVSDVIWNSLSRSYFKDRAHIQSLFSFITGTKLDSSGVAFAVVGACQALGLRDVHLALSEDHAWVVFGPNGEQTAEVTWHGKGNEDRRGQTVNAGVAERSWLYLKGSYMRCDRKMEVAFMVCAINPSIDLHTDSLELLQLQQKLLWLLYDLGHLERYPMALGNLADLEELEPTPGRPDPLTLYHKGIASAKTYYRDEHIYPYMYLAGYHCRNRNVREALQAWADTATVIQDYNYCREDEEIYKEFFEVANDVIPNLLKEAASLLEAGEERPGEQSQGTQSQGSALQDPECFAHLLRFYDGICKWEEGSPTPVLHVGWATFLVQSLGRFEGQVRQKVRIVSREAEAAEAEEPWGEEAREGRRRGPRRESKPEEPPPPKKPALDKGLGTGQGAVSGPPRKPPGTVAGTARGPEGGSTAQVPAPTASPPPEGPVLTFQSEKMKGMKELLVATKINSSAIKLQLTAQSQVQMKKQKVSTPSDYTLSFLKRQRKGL
Test: Menin and MLL protein binding at a molecular level (fluorescence polarization method)
Conditions: inhibition of Menin / MLL polypeptide binding
Protocol: Example 3: Determination of the Activity of the Compounds of the Present Invention on Menin and MLL Protein Binding at a Molecular Level (Fluorescence Polarization Method) 1. Reagents, Materials and Instruments: […] The vertical polarization S value and the horizontal polarization P value (excitation wavelength was 480 nm, and emission wavelength was 535 nm) were measured with Envision. […]
recorded.endpoint: IC50 (nM)

Below, 5 molecules whose answers are already recorded.
>>> observed("CCN(C(=O)c1cc(F)ccc1Oc1nncnc1N1CC2(CCN(CC3CCN(C(=O)C(C)O)CC3)CC2)C1)C(C)C (centres unmarked)")
41.7
>>> observed("CCN(C(=O)c1cc(F)ccc1Oc1nncnc1N1CC2(CCN(CC3CCN(c4cnnc(OC)c4)CC3)CC2)C1)C(C)C")
7.4
>>> observed("[2H]C(c1ccc2oc(C#N)cc2c1)N1CCC2(CC1)CN(c1ncnnc1Oc1ccc(F)cc1C(=O)N(CC)C(C)C)C2 (centres unmarked)")
6.1
>>> observed("CCN(C(=O)c1cc(F)ccc1Oc1nncnc1N1CC2(CCC(CN3CCN(c4ccccn4)CC3)CC2)C1)C(C)C")
750
>>> observed("CCN(C(=O)c1cc(F)ccc1Oc1nncnc1N1CC2(CCN(CC3CCN(C(=O)C4COC4)CC3)CC2)C1)C(C)C")
21.3

1 = CCN(C(=O)c1cc(F)ccc1Oc1nncnc1N1CC2(CCN(CC3CCN(C4COC4)CC3)CC2)C1)C(C)C
2 = CCN(C(=O)c1cc(F)ccc1Oc1nncnc1N1CC2(CCN(CC3CCN(c4ccnnc4)CC3)CC2)C1)C(C)C
3 = CCN(C(=O)c1cc(F)ccc1Oc1nncnc1N1CC2(CCN(CC3CCN(c4ccc5nccn5n4)CC3)CC2)C1)C(C)C
4 = CCN(C(=O)c1cc(F)ccc1Oc1nncnc1N1CC2(CCN(CC3CCN(c4cccc(CO)n4)CC3)CC2)C1)C(C)C
Sort these molecules on IC50 so the largest reading comes first. Use the labels to give the ranking in the order requested.
1, 2, 3, 4

I = CCN(C(=O)c1cc(F)ccc1Oc1nncnc1N1CC2(CCN(CC3CCN(c4ccc(C#N)nc4)CC3)CC2)C1)C(C)C
II = CCN(C(=O)c1cc(F)ccc1Oc1nncnc1N1CC2(CCN(CC3CCN(C(=O)C4(C#N)CC4)CC3)CC2)C1)C(C)C
Recorded IC50 values differ for I and II ; which one is higher? // respond with label for picked entry
II
(II: 19.8 nM, I: 4.7 nM)
